tested on: T-47D spheroids with HUVEC/MSC, viability; assay: Anticancer human tumor T-47D cell line growth inhibition [PI3K]; conditions: curve of first compound; second compound 0.1 µM;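 further: spheroids exposed to agents for seven days before reading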
Reported IC50 values for a set of molecules

Before answering, review these 4 worked examples.
molecule="C#Cc1c(F)ccc2cc(O)cc(-c3ncc4c(N5CC6CCC(C5)N6)nc(OCC56CCCN5CC(F)C6)nc4c3F)c12 (stereo not given) + COc1c(OCCCN2CCOCC2)ccc2c3n(c(=NC(=O)c4cnc(N)nc4)nc12)CCN3" assay_result="< 0.0316 µM"
molecule="CNC(=O)c1ccc(N2C(=S)N(c3ccc(C#N)c(C(F)(F)F)c3)C(=O)C2(C)C)cc1F + CC(Nc1ncnc2nc[nH]c12)c1cc2cccc(Cl)c2c(=O)n1-c1ccccc1" assay_result="> 10 µM"
molecule="Cn1nccc1Nc1nccc(-c2ccn(C(CO)c3ccc(Cl)c(F)c3)c(=O)c2)n1 (stereo not given) + COc1c(OCCCN2CCOCC2)ccc2c3n(c(=NC(=O)c4cnc(N)nc4)nc12)CCN3" assay_result="< 0.0316 µM"
molecule="CC(=O)c1c(C)c2cnc(Nc3ccc(N4CCNCC4)cn3)nc2n(C2CCCC2)c1=O + COc1c(OCCCN2CCOCC2)ccc2c3n(c(=NC(=O)c4cnc(N)nc4)nc12)CCN3" assay_result="< 0.000316 µM"

Next molecule, please.
Request - read-out IC50 | tested on T-47D spheroids with HUVEC/MSC, viability | molecule Cn1ncnc1[C@H]1c2n[nH]c(=O)c3cc(F)cc(c23)N[C@@H]1c1ccc(F)cc1 + CC(Nc1ccc2c(c1)OCCn1cc(N3C(=O)OCC3C(F)F)nc1-2)C(N)=O
> 0.1 µM

----------
test system: T-47D spheroids with HUVEC/MSC, viability; assay: Anticancer human tumor T-47D cell line growth inhibition [PI3K]; details: second compound 1 µM; first compound 1 µM; stronger effect = lower value;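 further: spheroids exposed to agents for seven days before reading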;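 on viability, T/C: percent of DMSO vehicle control luminescence so 100% = untreated growth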
# note: exactly 50% is not below, so it is label 0; use label 1 for viability, T/C strictly under it

compound="CNC(=O)c1ccc(N2C(=S)N(c3ccc(C#N)c(C(F)(F)F)c3)C(=O)C2(C)C)cc1F + Cc1nc(NC(=O)N2CCCC2C(N)=O)sc1-c1ccnc(C(C)(C)C(F)(F)F)c1" class_label="label 0"

hey, is viability, T/C for Cn1nccc1Nc1nccc(-c2ccn(C(CO)c3ccc(Cl)c(F)c3)c(=O)c2)n1 (stereo not drawn) + COc1c(OCCCN2CCOCC2)ccc2c3n(c(=NC(=O)c4cnc(N)nc4)nc12)CCN3 lower than 50% or not?
label 1

Threshold test, viability, T/C < 50%: CC(C)NCC(C(=O)N1CCN(c2ncnc3c2C(C)CC3O)CC1)c1ccc(Cl)cc1 (stereo not drawn) + CC(Nc1ccc2c(c1)OCCn1cc(N3C(=O)OCC3C(F)F)nc1-2)C(N)=O
label 1

Item CNC(=O)c1ccc(N2C(=S)N(c3ccc(C#N)c(C(F)(F)F)c3)C(=O)C2(C)C)cc1F + CC(Nc1ncnc2nc[nH]c12)c1cc2cccc(Cl)c2c(=O)n1-c1ccccc1 : viability, T/C beneath 50%, strictly?
label 0

----------
test system: T-47D spheroids with HUVEC/MSC, viability; experiment: Anticancer human tumor T-47D cell line growth inhibition [PI3K]; details: second compound 0.01 µM; first compound 10 µM; stronger effect = lower value;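 further: spheroids exposed to agents for seven days before reading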;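 on viability, T/C: percent of DMSO vehicle control luminescence so 100% = untreated growth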
Parameter: viability, T/C. Scope: all listed entries.
// note: answer is a bare numeric in %

Study these solved cases before continuing.
compound="Cn1nccc1Nc1nccc(-c2ccn(C(CO)c3ccc(Cl)c(F)c3)c(=O)c2)n1 (stereo not drawn) + CC(Nc1ccc2c(c1)OCCn1cc(N3C(=O)OCC3C(F)F)nc1-2)C(N)=O" measured_parameter="viability, T/C" unit=% assay_result=99.6
compound="C=CC(=O)N1CCN(c2nc(=O)n(-c3c(C)ccnc3C(C)C)c3nc(-c4c(O)cccc4F)c(F)cc23)C(C)C1 (stereo not drawn) + COc1c(OCCCN2CCOCC2)ccc2c3n(c(=NC(=O)c4cnc(N)nc4)nc12)CCN3" measured_parameter="viability, T/C" unit=% assay_result=104

As a next step, examine the compound that follows.
Returns the measured viability, T/C for the input compound. Input: C[C@@H](NC(=O)c1ncnc(N)c1Cl)c1ncc(C(=O)Nc2cc(C(F)(F)F)c(Cl)cn2)s1 + COc1c(OCCCN2CCOCC2)ccc2c3n(c(=NC(=O)c4cnc(N)nc4)nc12)CCN3
85

----------
Measured pIC50 by item
system: T-47D spheroids with HUVEC/MSC, viability; test: Anticancer human tumor T-47D cell line growth inhibition [PI3K]; conditions: curve of first compound; second compound 0.316 µM;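 further: spheroids exposed to agents for seven days before reading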
pIC50: −log10 of the molar value.

compound="CC(C)NCC(C(=O)N1CCN(c2ncnc3c2C(C)CC3O)CC1)c1ccc(Cl)cc1 (stereo unspecified) + Cc1nc(NC(=O)N2CCCC2C(N)=O)sc1-c1ccnc(C(C)(C)C(F)(F)F)c1" assay_result="< 5.00"
compound="Cn1nccc1Nc1nccc(-c2ccn(C(CO)c3ccc(Cl)c(F)c3)c(=O)c2)n1 (stereo unspecified) + CC(Nc1ncnc2nc[nH]c12)c1cc2cccc(Cl)c2c(=O)n1-c1ccccc1" assay_result="< 5.00"
compound="Cn1ncnc1[C@H]1c2n[nH]c(=O)c3cc(F)cc(c23)N[C@@H]1c1ccc(F)cc1 + Cc1nc(NC(=O)N2CCCC2C(N)=O)sc1-c1ccnc(C(C)(C)C(F)(F)F)c1" assay_result="< 7.00"
compound="Cn1cnc2c(F)c(Nc3ccc(Br)cc3Cl)c(C(=O)NOCCO)cc21 + CC(Nc1ccc2c(c1)OCCn1cc(N3C(=O)OCC3C(F)F)nc1-2)C(N)=O" assay_result="< 5.52"
compound="C[C@@H](NC(=O)c1ncnc(N)c1Cl)c1ncc(C(=O)Nc2cc(C(F)(F)F)c(Cl)cn2)s1 + CC(Nc1ncnc2nc[nH]c12)c1cc2cccc(Cl)c2c(=O)n1-c1ccccc1" assay_result="< 5.00"

Now consider the entry below.
I am curious: what pIC50 value has been reported for CC1(C)CCC(CN2CCN(c3ccc(C(=O)NS(=O)(=O)c4ccc(NCC5CCOCC5)c([N+](=O)[O-])c4)c(Oc4cnc5[nH]ccc5c4)c3)CC2)=C(c2ccc(Cl)cc2)C1 + Cc1nc(NC(=O)N2CCCC2C(N)=O)sc1-c1ccnc(C(C)(C)C(F)(F)F)c1 ?
< 5.00

----------
Tested on: T-47D spheroids with HUVEC/MSC, viability
Assay: Anticancer human tumor T-47D cell line growth inhibition [PI3K];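 further: spheroids exposed to agents for seven days before reading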;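 on viability, T/C: percent of DMSO vehicle control luminescence so 100% = untreated growth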
Details: second compound 0.316 µM; first compound 0.3 µM; stronger effect = lower value
From the text: Combinatorial screen of targeted agents with the PI3K inhibitors inavolisib, alpelisib, duvelisib, and copanlisib in multi-cell type tumor spheroids A high-throughput screen of multi-cell type tumor spheroids was designed to identify active combinations of targeted small molecules and PI3K pathway inhibitors. […] Compounds. […] If the clinical Cmax for an agent had not been determined, the highest concentration tested was 10 microM. […]
MEASURED_PARAMETER: viability, T/C (%)
Your answer is read as %, so omit the unit and give the number.

Worked set:
compound="Cn1cnc2c(F)c(Nc3ccc(Br)cc3Cl)c(C(=O)NOCCO)cc21 + Cc1nc(NC(=O)N2CCCC2C(N)=O)sc1-c1ccnc(C(C)(C)C(F)(F)F)c1" tested_target="T-47D spheroids with HUVEC/MSC, viability" measured_parameter="viability, T/C" unit=% assay_result=91.2
compound="Cn1cnc2c(F)c(Nc3ccc(Br)cc3Cl)c(C(=O)NOCCO)cc21 + COc1c(OCCCN2CCOCC2)ccc2c3n(c(=NC(=O)c4cnc(N)nc4)nc12)CCN3" tested_target="T-47D spheroids with HUVEC/MSC, viability" measured_parameter="viability, T/C" unit=% assay_result=13.7
compound="Cn1cnc2c(F)c(Nc3ccc(Br)cc3Cl)c(C(=O)NOCCO)cc21 + CC(Nc1ccc2c(c1)OCCn1cc(N3C(=O)OCC3C(F)F)nc1-2)C(N)=O" tested_target="T-47D spheroids with HUVEC/MSC, viability" measured_parameter="viability, T/C" unit=% assay_result=66.5

Proceeding to the next compound to report its viability, T/C.
Report viability, T/C for Cn1cnc2c(F)c(Nc3ccc(Br)cc3Cl)c(C(=O)NOCCO)cc21 + CC(Nc1ncnc2nc[nH]c12)c1cc2cccc(Cl)c2c(=O)n1-c1ccccc1 please.
83.9

----------
tested on: T-47D spheroids with HUVEC/MSC, viability; assay: Anticancer human tumor T-47D cell line growth inhibition [PI3K]; conditions: second compound 0.316 µM; first compound 0.1 µM; stronger effect = lower value;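 further: spheroids exposed to agents for seven days before reading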;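 on viability, T/C: percent of DMSO vehicle control luminescence so 100% = untreated growth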
MEASURED_PARAMETER: viability, T/C

Before answering, review these 2 worked examples.
compound="CCN1CCN(Cc2ccc(Nc3ncc(F)c(-c4cc(F)c5nc(C)n(C(C)C)c5c4)n3)nc2)CC1 + CC(Nc1ncnc2nc[nH]c12)c1cc2cccc(Cl)c2c(=O)n1-c1ccccc1" tested_target="T-47D spheroids with HUVEC/MSC, viability" assay_result=78.8%
compound="CCCS(=O)(=O)Nc1ccc(F)c(C(=O)c2c[nH]c3ncc(-c4ccc(Cl)cc4)cc23)c1F + CC(Nc1ncnc2nc[nH]c12)c1cc2cccc(Cl)c2c(=O)n1-c1ccccc1" tested_target="T-47D spheroids with HUVEC/MSC, viability" assay_result=87.7%

Now for another entry.
For C[C@@H](NC(=O)c1ncnc(N)c1Cl)c1ncc(C(=O)Nc2cc(C(F)(F)F)c(Cl)cn2)s1 + CC(Nc1ncnc2nc[nH]c12)c1cc2cccc(Cl)c2c(=O)n1-c1ccccc1 , what is its reported viability, T/C?
93.2%
